Where do these numbers come from? They come from patent US9783531B2.

Please provide measured IC50 for the entries that follow.
- System: recombinant human GST-SYK (Homo sapiens, UniProt P43405)
- Construct: purchased Carna Biosciences 08-176
- Procedure Details: Homogeneous Time-Resolved Fluorescence (HTRF) assay for the recombinant human Syk enzyme
- Assay type: biochemical
- Experimental Setup: recombinant human GST-SYK 5 pM, ATP 25 μM, read-out: rhSyk
The figure you give is taken to be in nM; do not add the unit.

Given the compound Cc1cc(Nc2ncn(C)n2)cc(-c2cnc(C3(O)CCC(C(=O)OC(C)(C)C)CC3)s2)c1 (stereo not drawn) [Example 1.1] , what is its reported IC50? 1160

Given the compound Cc1cc(Nc2ncn(C(C)C)n2)cc(-c2cnc([C@]3(O)CC[C@@H](C(=O)OC(C)(C)C)CC3)s2)c1 [Example 2.20] , what is its reported IC50? 1000

Given the compound Cc1cc(Nc2cc[nH]n2)cc(-c2cnc(C3(O)CCC3)s2)c1 [Example 2.4] , what is its reported IC50? 1140
